The origin of these recorded values is paper PMC9482650.

Target: SCRIB_3, Q14160
Sequence (Q14160 999-1103): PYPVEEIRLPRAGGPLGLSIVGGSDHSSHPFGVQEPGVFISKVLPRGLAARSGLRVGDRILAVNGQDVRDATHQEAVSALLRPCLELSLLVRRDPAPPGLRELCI
Assay: holdup assay
Parameters: key: below the threshold = too weak to quantify, mostly under pKd 3.1 to 4
Details: plain residues with an end cap or a label only (N-terminal biotin on a linker: ado-ado)
readout.label: pKd

                         binder  readout_label               result
0    SKSNFGSEPL [KIF17, Q9P2E2]            pKd  below the threshold
1     QSLNRMEYIV [JAG1, P78504]            pKd  below the threshold
2   NHSSSPETTA [TRMT13, Q9NUP7]            pKd  below the threshold
3   SKENVQETQI [LRRC4B, Q9NT99]            pKd                 4.88
4   EKKTLIGIKL [GOT1L1, Q8NHS2]            pKd  below the threshold
5    PEYLGLDVPV [ERBB2, P04626]            pKd  below the threshold
6    LPHPHSTTRV [NLGN2, Q8NFZ4]            pKd  below the threshold
7     GSGAVEMESV [AQP6, Q13520]            pKd  below the threshold
8  SNAGNTATKA [NOSTRIN, Q8IVI9]            pKd  below the threshold
9   TASPAKETSF [SLC2A7, Q6PXP3]            pKd                 5.14
